- Test system: Candida albicans
- method-summary: Growth inhibition of Candida albicans ATCC 90028 at 0.125 ug/ml incubated for 4 hrs at 35 degC by broth microdilution method relative to control
- Assay type: functional
- run-parameters: ATCC 90028, 4 h, read-out: GI
Reported values of inhibition of growth at 0.125 µg/mL for individual entries
reported-property: inhibition of growth at 0.125 µg/mL (%)

compound: CC(Cn1cnc2c1c(=O)n(C)c(=O)n2C)OCc1cn(-c2cccc3ccccc23)nn1 (stereo not drawn)
assay-target: Candida albicans
reported-property: inhibition of growth at 0.125 µg/mL
readout-unit: %
result: 99.7
//
compound: CC(Cn1cnc2c1c(=O)n(C)c(=O)n2C)OC(=O)Sc1ccccc1 (stereo not drawn)
assay-target: Candida albicans
reported-property: inhibition of growth at 0.125 µg/mL
readout-unit: %
result: 99.1
//
compound: CC(Cn1cnc2c1c(=O)n(C)c(=O)n2C)OC(=O)N1c2ccccc2Sc2ccccc21 (stereo not drawn)
assay-target: Candida albicans
reported-property: inhibition of growth at 0.125 µg/mL
readout-unit: %
result: 99.2
//
compound: CC(Cn1cnc2c1c(=O)n(C)c(=O)n2C)OC(=O)C(c1ccccc1)c1ccccc1 (stereo not drawn)
assay-target: Candida albicans
reported-property: inhibition of growth at 0.125 µg/mL
readout-unit: %
result: 99.8
//
compound: CC(Cn1cnc2c1c(=O)n(C)c(=O)n2C)OC(=O)CC(=O)c1ccccc1 (stereo not drawn)
assay-target: Candida albicans
reported-property: inhibition of growth at 0.125 µg/mL
readout-unit: %
result: 99
//
compound: CC(Cn1cnc2c1c(=O)n(C)c(=O)n2C)OCc1cn(CCCn2cnc3c(Br)c(Br)c(Br)c(Br)c32)nn1 (stereo not drawn)
assay-target: Candida albicans
reported-property: inhibition of growth at 0.125 µg/mL
readout-unit: %
result: 99.6
//
compound: COC(C(=O)OC(C)Cn1cnc2c1c(=O)n(C)c(=O)n2C)c1cccc2ccccc12 (stereo not drawn)
assay-target: Candida albicans
reported-property: inhibition of growth at 0.125 µg/mL
readout-unit: %
result: 100
//
compound: CC(CN1c2ccccc2Sc2ccccc21)OC(=O)OC(C)Cn1cnc2c1c(=O)n(C)c(=O)n2C (stereo not drawn)
assay-target: Candida albicans
reported-property: inhibition of growth at 0.125 µg/mL
readout-unit: %
result: 99.1

Origin of the recorded values: ChEMBL document CHEMBL4229342
